measurement_type: melting point

Recorded results for 3 compounds are shown here.
>  <compound>
C[C@@H](O)[C@@H](OCc1ccccc1)[C@H](OCc1ccccc1)[C@@H](C)O

>  <melting point>
46 to 50 °C

$$$$
>  <compound>
Cc1cc(C(=O)c2ccc(C(=O)c3cc(C)c(OCC4CO4)c(C)c3)cc2)cc(C)c1OCC1CO1 (stereo not given)

>  <melting point>
164 to 170 °C

$$$$
>  <compound>
COC[C@H]1CN(c2ccc([C@H]3CC[C@H](OCC#N)CC3)cc2)C(=O)O1

>  <melting point>
43 to 45 °C

$$$$

The measured melting point associated with CC(C)=CCN1Cc2c(Cl)ccc([N+](=O)[O-])c2NC[C@@H]1C reads 60 to 62 °C

For this compound ( CCOc1ccc(S(=O)(=O)N(Cc2ccc(C(=O)OC)cc2)[C@@H](CC)c2ccccc2)cc1 ), measured melting point is 102 to 104 °C

---

Collected melting point values appear next to each entry.

Entry O=C1NC(c2ccc(Cl)cc2)c2ccccc2C1CCN1CCOCC1 (stereo unspecified) , melting point reported as 239 to 245 °C

In plain terms, C=CC(=O)OCCOc1ccc(Cl)c2c1Sc1ccccc1C2 has a documented melting point of 90 to 91 °C

For c1ccc(CN2CC3(COc4cc5c(cc43)CCO5)c3c(-c4cncnc4)cccc32)nc1 (stereo unspecified) the compound record lists melting point as > 200 °C

// NCc1ccc(C(=O)Nc2ccc(-n3nc(C(F)(F)F)cc3C(F)(F)F)cc2)c(Cl)c1 : melting point value = 90 to 93 °C

---

Measured melting point accompanies every entry in the list below.

Solved cases below.
>  <compound>
CCOc1ccc([N+](=O)[O-])c(NN2CCN(C)CC2)c1

>  <measurement_type>
melting point

>  <data_value>
145 °C

$$$$
>  <compound>
CC(C)=CCOC1=CC(=O)c2ccccc2C1=O

>  <measurement_type>
melting point

>  <data_value>
60 °C

$$$$
>  <compound>
COCCn1nc(-c2sc(C(=O)NCc3ccccn3)nc2-c2ccccc2)ccc1=O

>  <measurement_type>
melting point

>  <data_value>
168 to 170 °C

$$$$
>  <compound>
CC(=O)c1ccc2c(c1)C(N1CCCC1=O)=CC(C)(C)O2

>  <measurement_type>
melting point

>  <data_value>
106 to 108 °C

$$$$
>  <compound>
CC1(C)CCC(C)(C)c2cc3[nH]c(SCc4ccccn4)nc3cc21

>  <measurement_type>
melting point

>  <data_value>
199 to 200 °C

$$$$

Note: attention shifts to another entry.
Summary for this compound, O=C(NCCCc1ccccc1)c1ccccc1NCc1ccncc1 : melting point is 117 °C

---

# key: entry, value: melting point

Consider the following illustrative entries.
>  <molecule>
Cc1c(=O)n(Cc2ccccc2)c(=O)n2cc(C(=O)NCc3ccccc3)sc12

>  <data_value>
176 to 178 °C

$$$$
>  <molecule>
CCn1c(=O)ccc2cnc(S(C)=O)nc21 (stereo not given)

>  <data_value>
202 to 203 °C

$$$$
>  <molecule>
Cc1nc(Cl)c2c(n1)N(c1c(C)cc(Br)cc1C)C(=O)C2C (stereo not given)

>  <data_value>
148 to 150 °C

$$$$

O=C(O)Cn1c(=O)n(CCCCN2CCC(OC(c3ccccc3)c3ccccc3)CC2)c(=O)c2ccccc21 yielded melting point of 153 to 155 °C

// field: melting point; key: CC[C@H]1[C@H](O)[C@@H](C)C(=O)N1c1ccc(C#N)c(Cl)c1 ; value = 120 to 123 °C

get_value(item= N#Cc1cnc2cc(/C=C/CCCCCCCCCN3CCOCC3)ccc2c1Nc1ccc(Cl)cc1Cl , readout=melting point) returns 105 to 106 °C
